Data origin: paper PMC9090415

Target: P. falciparum apicoplast DNA polymerase (Pf-apPOL) (Plasmodium falciparum)
Sequence (Q8ILY1 entry or part of it): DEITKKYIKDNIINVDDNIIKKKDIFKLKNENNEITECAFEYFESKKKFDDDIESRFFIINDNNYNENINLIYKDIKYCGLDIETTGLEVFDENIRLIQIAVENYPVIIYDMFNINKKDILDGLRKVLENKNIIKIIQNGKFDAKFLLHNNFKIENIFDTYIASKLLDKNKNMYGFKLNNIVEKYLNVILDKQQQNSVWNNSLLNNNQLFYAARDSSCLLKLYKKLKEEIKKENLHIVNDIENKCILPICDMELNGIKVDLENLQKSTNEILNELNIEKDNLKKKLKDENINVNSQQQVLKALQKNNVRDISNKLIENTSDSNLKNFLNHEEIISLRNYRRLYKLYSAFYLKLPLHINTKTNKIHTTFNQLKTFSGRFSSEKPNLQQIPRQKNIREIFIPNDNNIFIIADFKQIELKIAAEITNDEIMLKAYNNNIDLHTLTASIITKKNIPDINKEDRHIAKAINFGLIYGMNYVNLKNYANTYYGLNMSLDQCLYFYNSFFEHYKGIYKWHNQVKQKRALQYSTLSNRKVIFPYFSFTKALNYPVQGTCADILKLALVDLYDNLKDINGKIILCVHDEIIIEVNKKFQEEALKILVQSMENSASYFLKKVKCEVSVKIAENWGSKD
Experiment: Fluorescence-based high-throughput DNA polymerase assay (molecular beacon), primary screen and dose-response;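 note: test concentration in µM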
Assay type: biochemical
Conditions: DRC-2, 180', concentration 10
Source text: The HT assay employs a molecular beacon, a stem-loop DNA template with a Cy3 dye and the Black Hole Quencher on the 3′ and 5′ ends of the DNA, respectively. Pf-apPOL concentration is based on a calculated absorptivity of ε280 = 56750 M^−1 cm^−1. […] To identify apPOL inhibitors we utilised our previously developed high-throughput DNA polymerase assay. […] The assay accurately recapitulates the kinetic behaviour of apPOL, as measured through more conventional low-throughput gel-based assays. […]
Property: % inhibition apPOL 180'; scope: individual compounds

- compound: "CCOC(=O)C(NCc1ccco1)(NC(=O)c1ccco1)C(F)(F)F (stereo not drawn)"
  % inhibition apPOL 180' (%): -2
- compound: "O=[N+]([O-])c1cc2c(cc1CN1CCN(c3cccc(Cl)c3)CC1)OCO2"
  % inhibition apPOL 180' (%): 2.12
- compound: "COc1ccc(C(=O)Nc2cccc(-c3nc4ncccc4o3)c2)cc1[N+](=O)[O-]"
  % inhibition apPOL 180' (%): 8
- compound: "CSC(C)C(=O)C=CN(C)C (stereo not drawn)"
  % inhibition apPOL 180' (%): 5.41
- compound: "Oc1ccc(N=Nc2ccccc2)c(O)c1"
  % inhibition apPOL 180' (%): 16
- compound: "Cc1ncc(CSc2nc(C(C)(C)C)cs2)c(CO)c1O"
  % inhibition apPOL 180' (%): 2.58
- compound: "CS(=O)(=O)c1cccc(C(=O)Nc2nnc(-c3ccno3)o2)c1"
  % inhibition apPOL 180' (%): -3
- compound: "O=C(NNC(=O)C(F)(F)Sc1ccccc1)c1ccsc1 [Molecule 68, O=C(C(Sc1ccccc1)(F)F)NNC(=O)c1cscc1]"
  % inhibition apPOL 180' (%): 5
- compound: "Cn1nc(C(=O)N2CCc3c(nc4cc(-c5ccccc5)[nH]n4c3=O)C2)c2ccccc21"
  % inhibition apPOL 180' (%): 29
- compound: "O=C(O)CC1SC(c2ccc3c(c2)OCO3)=NC1=O (stereo not drawn)"
  % inhibition apPOL 180' (%): 3
- compound: "O=C(c1c[nH]c2ncccc12)N1CCCCCC1 [Molecule 51, O=C(c1c[nH]c2c1cccn2)N1CCCCCC1]"
  % inhibition apPOL 180' (%): 17
- compound: "CN(C)C=CC(=O)c1ccccn1"
  % inhibition apPOL 180' (%): 9
- compound: "O=[N+]([O-])c1cc2c(cc1CN1CCCCCC1)OCO2"
  % inhibition apPOL 180' (%): 6
- compound: "O=C(O)C(=O)Nc1nc(-c2ccc3c(c2)OCCO3)cs1"
  % inhibition apPOL 180' (%): 15
- compound: "O=c1cc(-c2ccccc2)oc2c(O)c(O)ccc12"
  % inhibition apPOL 180' (%): 7.41
